Kindly supply the reported PBM binding z-score values for the records listed here.
System: RARg homodimer (NR concentration 270 nM)
Assay details: PBM binding z-score (relative to random genomic background probes); higher = stronger binding; sequences stand for … in GC…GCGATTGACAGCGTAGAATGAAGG
API doc: respond with a numeric literal and nothing else, no unit.

What measured PBM binding z-score goes with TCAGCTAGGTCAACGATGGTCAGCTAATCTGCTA ?
4.83

Now the sequence TCATATTGGTAAAGGTGAAAGTCGAACGATATGA
0.994

Now the sequence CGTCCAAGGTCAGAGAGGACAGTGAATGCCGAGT
5.67

Now the sequence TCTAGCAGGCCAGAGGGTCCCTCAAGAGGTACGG
-0.396

Now the sequence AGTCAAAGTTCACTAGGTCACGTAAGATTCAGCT
7.17

Now the sequence TCGTATAGGTAAAAGGTGAAAGTCGGTGTGGTAA
0.793

Now the sequence CAAACTAGGTCAAAGGTCAAAGGCGAGCCAACCA
7.75

Now the sequence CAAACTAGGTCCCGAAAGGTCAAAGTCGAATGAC
5.09

Now the sequence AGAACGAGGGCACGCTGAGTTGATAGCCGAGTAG
2.15

Now the sequence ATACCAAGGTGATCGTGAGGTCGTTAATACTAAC
0.856

Now the sequence CAAACTAGGTCGAAGGTCAAAGTCGAGCCAACCA
4.29

Now the sequence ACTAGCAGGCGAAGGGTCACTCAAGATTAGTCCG
3.42

----------
System: RXRa homodimer (NR concentration 180 nM)
Assay details: PBM binding z-score (relative to random genomic background probes); higher = stronger binding; sequences stand for … in GC…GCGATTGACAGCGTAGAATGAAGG
The label depends only on PBM binding z-score: 1 (yes) if it is at least 3, 0 (no) if it is smaller.

Does the sequence TCGAGTTGGTCACGGAGGTCACACACGACGGGTA have recorded PBM binding z-score that is 3 or more?
1 (yes)

Now the sequence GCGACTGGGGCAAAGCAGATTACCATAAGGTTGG
0 (no)

Now the sequence CAAACTACGTCAAAGGTCAAAGTCGAGCCAACCA
1 (yes)

Now the sequence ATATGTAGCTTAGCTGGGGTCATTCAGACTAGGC
1 (yes)

Now the sequence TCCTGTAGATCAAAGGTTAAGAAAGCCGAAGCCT
1 (yes)

Now the sequence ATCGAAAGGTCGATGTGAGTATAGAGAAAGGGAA
0 (no)

Now the sequence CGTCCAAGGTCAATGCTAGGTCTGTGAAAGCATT
1 (yes)

Now the sequence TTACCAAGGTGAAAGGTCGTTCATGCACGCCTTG
1 (yes)

Now the sequence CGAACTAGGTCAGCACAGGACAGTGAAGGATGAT
0 (no)

Now the sequence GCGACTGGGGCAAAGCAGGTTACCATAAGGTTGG
0 (no)

Now the sequence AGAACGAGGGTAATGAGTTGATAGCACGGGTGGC
0 (no)

Now the sequence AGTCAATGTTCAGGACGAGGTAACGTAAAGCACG
0 (no)

----------
Kindly supply the reported PBM binding z-score values for the records listed here.
Test system: PPARg:RXRa DBDmut IVT, anti-RXR (DBD mutation: RXRa K156A/R161A, NR concentration 270 nM, RXRa partner concentration 90 nM)
Assay details: PBM binding z-score (relative to random genomic background probes); higher = stronger binding; sequences stand for … in GC…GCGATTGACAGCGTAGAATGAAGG
API doc: respond with a numeric literal and nothing else, no unit.

What measured PBM binding z-score goes with TCATATAGGAAAATGCTAGGTGAAAGTCCGATCT ?
2.71

Now the sequence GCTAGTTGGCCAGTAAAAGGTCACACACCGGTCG
0.354

Now the sequence TGAATGAGGTTAAAGAGCAGGGAACGTGGCGTCG
2.26

Now the sequence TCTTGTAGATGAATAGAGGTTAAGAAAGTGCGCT
2.5

Now the sequence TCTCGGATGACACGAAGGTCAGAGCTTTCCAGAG
1.37

Now the sequence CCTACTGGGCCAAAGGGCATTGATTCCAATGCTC
4.36
